Some sequences, each annotated with its measured shrunken log2 fold change.
Test system: Escherichia coli TOP10;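 further: peptides expressed intracellularly from a pBAD plasmid library in pooled LB shake-flask culture, induced with 0.3% L-arabinose, DNA abundance read by NGS, three biological replicates, DESeq2 with apeglm shrinkage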
experiment.notes: shrunken log2 fold change of peptide-encoding DNA abundance (4.5 h post-induction vs induction); higher = less antimicrobial activity (less host growth inhibition)
test.parameters: time post-induction: 4.5 h; library: site-saturation at positions 5, 18, 19, 20
measurement.type: shrunken log2 fold change

seq.text: RRIRNRPPRLPRPRPRPRHKPRP
measurement.type: shrunken log2 fold change
observed.measurement: -0.369
//
seq.text: RRIRCRPPRLPRPRPRPLPIPRP
measurement.type: shrunken log2 fold change
observed.measurement: -0.0776
//
seq.text: RRIRARPPRLPRPRPRPMMDPRP
measurement.type: shrunken log2 fold change
observed.measurement: -0.203
//
seq.text: RRIRMRPPRLPRPRPRPHYDPRP
measurement.type: shrunken log2 fold change
observed.measurement: -0.135
//
seq.text: RRIRIRPPRLPRPRPRPAETPRP
measurement.type: shrunken log2 fold change
observed.measurement: -0.0338
//
seq.text: RRIRLRPPRLPRPRPRPDGVPRP
measurement.type: shrunken log2 fold change
observed.measurement: -0.0786
//
seq.text: RRIRGRPPRLPRPRPRPGLPPRP
measurement.type: shrunken log2 fold change
observed.measurement: 0.747
//
seq.text: RRIRTRPPRLPRPRPRPGKVPRP
measurement.type: shrunken log2 fold change
observed.measurement: 0.145
//
seq.text: RRIRRRPPRLPRPRPRPHRNPRP
measurement.type: shrunken log2 fold change
observed.measurement: -0.317
//
seq.text: RRIRMRPPRLPRPRPRPHCSPRP
measurement.type: shrunken log2 fold change
observed.measurement: 0.183
//
seq.text: RRIRIRPPRLPRPRPRPRDFPRP
measurement.type: shrunken log2 fold change
observed.measurement: -0.157
//
seq.text: RRIRHRPPRLPRPRPRPTNSPRP
measurement.type: shrunken log2 fold change
observed.measurement: -0.258
//
seq.text: RRIRKRPPRLPRPRPRPQFFPRP
measurement.type: shrunken log2 fold change
observed.measurement: -0.493
//
seq.text: RRIRKRPPRLPRPRPRPRMEPRP
measurement.type: shrunken log2 fold change
observed.measurement: 0.0104
//
seq.text: RRIRLRPPRLPRPRPRPRMHPRP
measurement.type: shrunken log2 fold change
observed.measurement: 0.136
//
seq.text: RRIRVRPPRLPRPRPRPHRDPRP
measurement.type: shrunken log2 fold change
observed.measurement: -0.198
//
seq.text: RRIRYRPPRLPRPRPRPLAQPRP
measurement.type: shrunken log2 fold change
observed.measurement: -0.17
//
seq.text: RRIRKRPPRLPRPRPRPCECPRP
measurement.type: shrunken log2 fold change
observed.measurement: 0.62
//
seq.text: RRIRKRPPRLPRPRPRPHVHPRP
measurement.type: shrunken log2 fold change
observed.measurement: -0.105
//
seq.text: RRIRARPPRLPRPRPRPYFAPRP
measurement.type: shrunken log2 fold change
observed.measurement: -0.201
//
seq.text: RRIRNRPPRLPRPRPRPQHCPRP
measurement.type: shrunken log2 fold change
observed.measurement: -0.065
//
seq.text: RRIRQRPPRLPRPRPRPRHPPRP
measurement.type: shrunken log2 fold change
observed.measurement: 0.283
//
seq.text: RRIRTRPPRLPRPRPRPIFSPRP
measurement.type: shrunken log2 fold change
observed.measurement: -0.393
//
seq.text: RRIRYRPPRLPRPRPRPQPRPRP
measurement.type: shrunken log2 fold change
observed.measurement: 0.463
//
seq.text: RRIRWRPPRLPRPRPRPMVLPRP
measurement.type: shrunken log2 fold change
observed.measurement: -0.243
//
seq.text: RRIRIRPPRLPRPRPRPHPCPRP
measurement.type: shrunken log2 fold change
observed.measurement: -0.736
//
seq.text: RRIRFRPPRLPRPRPRPPQHPRP
measurement.type: shrunken log2 fold change
observed.measurement: 0.108
//
seq.text: RRIRDRPPRLPRPRPRPYDFPRP
measurement.type: shrunken log2 fold change
observed.measurement: -0.178
//
seq.text: RRIRSRPPRLPRPRPRPWEFPRP
measurement.type: shrunken log2 fold change
observed.measurement: 0.236
//
seq.text: RRIRRRPPRLPRPRPRPQHRPRP
measurement.type: shrunken log2 fold change
observed.measurement: 0.266
//
seq.text: RRIRQRPPRLPRPRPRPEVFPRP
measurement.type: shrunken log2 fold change
observed.measurement: 0.0304
//
seq.text: RRIRDRPPRLPRPRPRPVHNPRP
measurement.type: shrunken log2 fold change
observed.measurement: -0.585
//
seq.text: RRIRIRPPRLPRPRPRPNIWPRP
measurement.type: shrunken log2 fold change
observed.measurement: 0.127
//
seq.text: RRIRFRPPRLPRPRPRPFIKPRP
measurement.type: shrunken log2 fold change
observed.measurement: -0.648
//
seq.text: RRIRIRPPRLPRPRPRPGYSPRP
measurement.type: shrunken log2 fold change
observed.measurement: -0.525
